# Lookup of reported cell count keyed by entry
- method: viability loss with induced miR-34 in A549 – imaging, A549 dox-inducible miR-34, nuclei and caspase counts, primary screen (AID 1347080); further: test concentration not given here
- experimentalContext: A549 miR-34 inducible, Hoechst nuclei count, 48 h; measured here: total cells with miR-34 induction; stronger effect = lower value

molecule | cell count
CN1[C@@H]2CC(OC(=O)C(CO)c3ccccc3)C[C@H]1[C@@H]1O[C@H]12 (stereo partly specified) | 9480
O=C(O)/C=C/c1cnc[nH]1 | 10700
O=C1NC(=O)C(=Cc2ccc3nccc(-c4ccncc4)c3c2)S1 | 1700
CCCCCC(O)/C=C/C=O (stereo unspecified) | 5280
O=C(O)c1ccc(C=C2SC(=S)N(c3cccc(C(F)(F)F)c3)C2=O)cc1 | 6780
CCN(CC)CCOC(=O)c1ccc(N)cc1Cl | 9150
COc1cc(F)ccc1C(=O)N1CCc2[nH]nc(Cc3ccccc3)c2C1 | 6700
NCc1ccccc1CC(=O)N[C@@H]1C(=O)N2C(C(=O)O)=C(CSc3nnnn3CC(=O)O)CS[C@H]12 | 8230
O=C(O)[C@H]1NCCC[C@H]1C(=O)O | 10400
CCOc1ccc(Cc2cc(C3OC(CO)C(O)C(O)C3O)ccc2Cl)cc1 (stereo unspecified) | 7650
Oc1ccc(Cn2cc[nH]c2=S)cc1 | 9950
